Data origin, for the record: ChEMBL document CHEMBL5303573

- testProtocol: The drug is tested on Parabacteroides merdae strain: ATCC43184 for biotransformation. The drug concentrations were measured before and after a 12-h incubation by liquid-chromatography-coupled mass spectrometry (LC–MS)
- testConditions: 2 µM
observedProperty: Bacterial Biotransformation

In the examples that follow, each entry is paired with its recorded Bacterial Biotransformation.
[
  {
    "compound": "C[C@H]1O[C@@H](O[C@H]2[C@@H](O)C[C@H](O[C@H]3[C@@H](O)C[C@H](O[C@H]4CC[C@@]5(C)[C@H](CC[C@@H]6[C@@H]5C[C@@H](O)[C@]5(C)[C@@H](C7=CC(=O)OC7)CC[C@]65O)C4)O[C@@H]3C)O[C@@H]2C)C[C@H](O)[C@@H]1O",
    "Bacterial Biotransformation": "Compound metabolized"
  },
  {
    "compound": "N[C@@H](Cc1ccc(N(CCCl)CCCl)cc1)C(=O)O",
    "Bacterial Biotransformation": "Compound metabolized"
  },
  {
    "compound": "CCCc1nc(C(C)(C)O)c(C(=O)OCc2oc(=O)oc2C)n1Cc1ccc(-c2ccccc2-c2nnn[nH]2)cc1",
    "Bacterial Biotransformation": "Compound metabolized"
  },
  {
    "compound": "COc1ccc2[nH]c([S+]([O-])Cc3ncc(C)c(OC)c3C)nc2n1 (configuration not stated)",
    "Bacterial Biotransformation": "Compound metabolized"
  },
  {
    "compound": "N#Cc1ccc(C(c2ccc(C#N)cc2)n2cncn2)cc1",
    "Bacterial Biotransformation": "Compound NOT metabolized"
  }
]

// CC(=O)O[C@]1(C(C)=O)CC[C@H]2[C@@H]3C=C(C)C4=CC(=O)CC[C@]4(C)[C@H]3CC[C@@]21C [MEGESTROL ACETATE] : Bacterial Biotransformation value = Compound metabolized

// CN1CCc2c(c3ccccc3n2Cc2ccccc2)C1.CN1CCc2c(c3ccccc3n2Cc2ccccc2)C1.O=S(=O)(O)c1cccc2c(S(=O)(=O)O)cccc12 : Bacterial Biotransformation value = Compound NOT metabolized
